Experiment: in vivo
Parameters: species or system nude mice
Settings: nude, mouse, total radioactivity, Tumor-to-tissue ratio Blood
*1 amine or outer side, *2 acyl side, *3 side chain or, on linkers, in order; H or OH if unused. Where a SMILES comes first, the peptide text is derived from it. Side-chain parts run from the residue outwards. [ ]: non-standard residue; d: D form. The star is where a group is joined. DOTA = O=C(O)CN1CCN(CC(=O)O)CCN(CC(=O)*)CCN(CC(=O)O)CC1; NH(2-(imidazol-4-yl)ethyl) = c1ncc(CCN*)[nH]1; Suc = O=C(CCC(=O)[*:2])[*:1]
endpoint-label: tissue to tissue ratio at 2 h
Write the value as a bare number.

Exercise: Query (compound): NC(=O)[C@H](CCCCNC(=O)CNC(=O)CCC(=O)NCCc1cnc[nH]1)NC(=O)[C@@H](Cc1ccc(O)cc1)NC(=O)[C@H](CCCCNC(=O)CNC(=O)CCC(=O)NCCc1cnc[nH]1)NC(=O)[C@H](Cc1ccccc1)NC(=O)CN1CCN(CC(=O)O)CCN(CC(=O)O)CCN(CC(=O)O)CC1 [Ga-67-IMP 241, metal not drawn] ({DOTA}-FK([Gly-Suc-NH(2-(imidazol-4-yl)ethyl)])[dY]K([Gly-Suc-NH(2-(imidazol-4-yl)ethyl)])-NH2) ; field requested: tissue to tissue ratio at 2 h
Solution: 6.1

###

Experiment: in vivo
Design: species or system nude mice
Details: nude, mouse, total radioactivity, Tumor-to-tissue ratio Blood
Protocol: The bispecific antibody I-125-hMN-14×679-F(ab′)2 (anti-CEA×anti-HSG, radiolabeled with iodine-125 as a tracer radionuclide) was injected into nude mice bearing GW39 human colon tumor xenografts. […] At specified times post-injection, five animals per time-point were sacrificed and tissues collected and counted for both I-125 and Ga-67 radioactivity, using dual energy windows for each respective radionuclide. […]
*1 amine or outer side, *2 acyl side, *3 side chain or, on linkers, in order; H or OH if unused. Where a SMILES comes first, the peptide text is derived from it. Side-chain parts run from the residue outwards. [ ]: non-standard residue; d: D form. The star is where a group is joined. DOTA = O=C(O)CN1CCN(CC(=O)O)CCN(CC(=O)*)CCN(CC(=O)O)CC1; NH(2-(imidazol-4-yl)ethyl) = c1ncc(CCN*)[nH]1; Suc = O=C(CCC(=O)[*:2])[*:1]
endpoint-label: tissue to tissue ratio at 1 h
Write the value as a bare number.

Exercise: Query (compound): NC(=O)[C@H](CCCCNC(=O)CNC(=O)CCC(=O)NCCc1cnc[nH]1)NC(=O)[C@@H](Cc1ccc(O)cc1)NC(=O)[C@H](CCCCNC(=O)CNC(=O)CCC(=O)NCCc1cnc[nH]1)NC(=O)[C@H](Cc1ccccc1)NC(=O)CN1CCN(CC(=O)O)CCN(CC(=O)O)CCN(CC(=O)O)CC1 [Ga-67-IMP 241, metal not drawn] ({DOTA}-FK([Gly-Suc-NH(2-(imidazol-4-yl)ethyl)])[dY]K([Gly-Suc-NH(2-(imidazol-4-yl)ethyl)])-NH2) ; field requested: tissue to tissue ratio at 1 h
Solution: 1.7

###

Assay: in vivo
Design: species or system nude mice
Conditions: nude, mouse, total radioactivity, Tumor-to-tissue ratio Bone
*1 amine or outer side, *2 acyl side, *3 side chain or, on linkers, in order; H or OH if unused. Where a SMILES comes first, the peptide text is derived from it. Side-chain parts run from the residue outwards. [ ]: non-standard residue; d: D form. The star is where a group is joined. DOTA = O=C(O)CN1CCN(CC(=O)O)CCN(CC(=O)*)CCN(CC(=O)O)CC1; NH(2-(imidazol-4-yl)ethyl) = c1ncc(CCN*)[nH]1; Suc = O=C(CCC(=O)[*:2])[*:1]
endpoint-label: tissue to tissue ratio at 4 h
Write the value as a bare number.

Exercise: Query (compound): NC(=O)[C@H](CCCCNC(=O)CNC(=O)CCC(=O)NCCc1cnc[nH]1)NC(=O)[C@@H](Cc1ccc(O)cc1)NC(=O)[C@H](CCCCNC(=O)CNC(=O)CCC(=O)NCCc1cnc[nH]1)NC(=O)[C@H](Cc1ccccc1)NC(=O)CN1CCN(CC(=O)O)CCN(CC(=O)O)CCN(CC(=O)O)CC1 [Ga-67-IMP 241, metal not drawn] ({DOTA}-FK([Gly-Suc-NH(2-(imidazol-4-yl)ethyl)])[dY]K([Gly-Suc-NH(2-(imidazol-4-yl)ethyl)])-NH2) ; field requested: tissue to tissue ratio at 4 h
Solution: 18.3
